- Measured On: T1, human TREM2 on the cell surface (human, UniProt Q9NZC2 19-230)
- T1 sequence: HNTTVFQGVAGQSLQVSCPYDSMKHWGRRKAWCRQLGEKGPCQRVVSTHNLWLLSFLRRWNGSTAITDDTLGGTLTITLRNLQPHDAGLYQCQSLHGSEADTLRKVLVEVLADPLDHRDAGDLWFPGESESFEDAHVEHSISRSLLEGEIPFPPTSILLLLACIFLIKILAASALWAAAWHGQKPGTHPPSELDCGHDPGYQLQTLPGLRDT
- Assay Overview: cell-based or functional assay
Observation Type: pSyk activation (human macrophages) EC50 (nM)

Qu. Which measured pSyk activation (human macrophages) EC50 (nM) value corresponds to CL0020201 (antibody, V domains shown, also called Clone CL0020201) VH: EVQLQQSGPVLVKPGASVRMSCKPSGYTFTDYYMNWVKQSHGKSLEWIGSINPYTGGSSYNQNFRGKATLTVDKSSSTAYMELNSLTSEDSAVYYCARGSYYSNLGFAYWGQGTLVTVSA VL: DVQLTQSPSFLTASPGETITINCRASKSISKYLAWYQEKPGKTNKLLISSGSTLQSGIPSRFSGSGSGTDFTLTISSLEPEDFAMYYCQQYSEYPFTFGSGTKLEIK ?
Ans. 9.5 nM

Qu. Which measured pSyk activation (human macrophages) EC50 (nM) value corresponds to CL0020096 (antibody, V domains shown, also called Clone CL0020096) VH: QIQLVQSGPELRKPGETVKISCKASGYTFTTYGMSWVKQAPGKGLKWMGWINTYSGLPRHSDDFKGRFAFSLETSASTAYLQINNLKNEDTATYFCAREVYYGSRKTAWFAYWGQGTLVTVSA VL: DLVMSQSPSSLAVSVGERVTMSCKSSQSLLYSNDQKNYLAWYQQIPGQSPKLLIYWASTRESGVPDRFTGSGSGTDFTLTISSVKAEDLAVYFCQQYYSYPPTFGAGTKLELK ?
Ans. 30.9 nM

Qu. Which measured pSyk activation (human macrophages) EC50 (nM) value corresponds to CL0020120 (antibody, V domains shown, also called Clone CL0020120) VH: EVQLQQSGPELVRTGASVKISCRASSYSFTDNYIHWVKQTHGRSLEWIGYISGYTGATSYNQKFKGKATFTVDTSSSTAYMQFNSLTSEDSAVYYCARSTMIAPYGMDYWGQGTSVTVSS VL: DIVMTQSHKFMSTSVGDRVNITCKASQDVVTAVAWYQQKPGQSPKLLIYWASTRHTGVPDRFTGSGSGTDFTLTISNVQSEDLADYFCQQYSRYPLTFGAGTKLELK ?
Ans. 24.2 nM

Qu. Which measured pSyk activation (human macrophages) EC50 (nM) value corresponds to CL0020206 (antibody, V domains shown, also called Clone CL0020206) VH: EVQLQQSGPVLVKPGASVKMSCKASGYTFTDYYMNWVKQSHGKSLEWIGIINPYSGGISYNQKFKGKAILTVDKSSSTAYMELNSLTSEASAVYYCTRRNWDGRYAMDYWGQGTSVTVSS VL: DIVMTQSHKFMSTSVGDRVSITYKASQDVGSAVAWYQQKPGQSPKLLIYWTSTRHTGVPDRFTGSGSGTDFTLTISNVQSEDLADYFCQQYSSYPFTFGGGTKLEIK ?
Ans. 20.7 nM

Qu. Which measured pSyk activation (human macrophages) EC50 (nM) value corresponds to CL0020123 (antibody, V domains shown, also called Clone CL0020123) VH: EVQLQQSGAELVRSGASVKLSCTASGFSIEDFYIHWVKQRPEQGLEWIGWIDPENGDSKYAPKFQGKATMTADTSSNTAYLHLSSLTSEDTAVYYCHADHGNYGSTMDYWGQGTSVTVSS VL: DIQMNQSPSSLSASLGDTVTITCHASQHINVWLSWYQQKPGDHPKLLIYKASNLHTGVPSRFSGSGSGTGFTLTISSLQPEDIATYYCQQGQTYPRTFGGGTKLEIK ?
Ans. 7 nM

Qu. Which measured pSyk activation (human macrophages) EC50 (nM) value corresponds to CL0020205 (antibody, V domains shown, also called Clone CL0020205) VH: EVQLQQSGPVLVKPGASVKMSCKASGYTFTDYYVHWVKQSHGKSLEWIGLINPYTGTTSYNQRFRVKATLTVDKSSSTAYMEVNSLTSEDSAVYYCARSRVYYGSSLFAFWGQGTLVTVSA VL: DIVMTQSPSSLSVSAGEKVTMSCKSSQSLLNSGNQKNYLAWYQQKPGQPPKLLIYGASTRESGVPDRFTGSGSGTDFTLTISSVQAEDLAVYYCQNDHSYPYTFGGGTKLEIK ?
Ans. 14.3 nM
